Just for reference, ChEMBL document CHEMBL1127394 is where these values come from.

Experiment: Concentration required to reduce ethidium bromide fluorescence to 50% of control in presence of calf thymus DNA
READOUT_NAME: Concentration for 50% ethidium displacement (C50) (µM)
The reply should contain only the number, in µM.

CSC1=C(CCNC(C)=O)c2nc3ccccc3c3ccnc(c23)C1=O: 21
CC(=O)NCCC1=CC(=O)c2nccc3c2c1nc1ccccc13: 54

Could you now look at the following compound, please?
State the recorded Concentration for 50% ethidium displacement (C50) for this entry: "CC(=O)NCCc1c2c3c(ccnc3c3ncsc13)-c1ccccc1N2" 62

###

Test system: HCT-116
Experiment: Tested for the cytotoxicity to inhibit replication assay against the human colon tumor cell line HCT116
Assay type: functional, cell-based
Could you mark each record TRUE if its IC50 falls strictly under 8 µM, and FALSE if it equals or exceeds it?

COc1cc(NS(C)(=O)=O)ccc1Nc1c2ccccc2nc2ccccc12 [AMSACRINE]: TRUE

# check: IC50 < 8 µM for COc1cc([C@@H]2c3cc4c(cc3[C@@H](O[C@@H]3O[C@@H]5CO[C@@H](C)O[C@H]5[C@H](O)[C@H]3O)[C@H]3COC(=O)[C@H]23)OCO4)cc(OC)c1O [ETOPOSIDE] TRUE

Input CSC1=C(CCNC(C)=O)c2nc3ccccc3c3ccnc(c23)C1=O [DIPLAMINE] TRUE

Input "CC(=O)NCCC1=CC(=O)c2nccc3c2c1nc1ccccc13" TRUE

Input CC(=O)NCCc1c2c(c3nccc4c3c1Nc1ccccc1-4)NC(=O)CS2 [SHERMILAMINE B] FALSE

Input c1ccc2c(c1)nc1c3nc4ccccc4c4ccnc(c5nccc2c51)c43 [EILATIN] TRUE

Input "CC(C)=CC(=O)NCCc1c2c3c(ccnc3c3ncsc13)-c1ccccc1N2" FALSE

Input "CC(C)=CC(=O)NCCc1c2c(c3nccc4c3c1Nc1ccccc1-4)NC(=O)CS2" FALSE
